Entries and their measured phenotypically active follow.
System: HepG2-ACTB-RAB5A
Assay: phenotypically active (imaging signature differs from DMSO and reproducible) at any of 0.3-9 uM (binary (1 = active, 0 = inactive)); higher = active
Conditions: treatment time: 24 h
Counter-ions that a name gives are not always drawn.

The examples below pair each entry with its known result.
C=C[C@H]1C[N@@]2CC[C@H]1C[C@@H]2[C@@H](O)c1ccnc2ccc(OC)cc12
0 (inactive)
CCCCc1oc2ccc(NS(C)(=O)=O)cc2c1C(=O)c1ccc(OCCCN(CCCC)CCCC)cc1
1 (active)
CC(C)c1nc(CN(C)C(=O)N[C@H](C(=O)N[C@@H](Cc2ccccc2)C[C@H](O)[C@H](Cc2ccccc2)NC(=O)OCc2cncs2)C(C)C)cs1
0 (inactive)
C[C@@H](CO)CCC[C@@H](C)[C@H]1CC[C@H]2[C@@H]3CC=C4C[C@@H](O)CC[C@]4(C)[C@H]3CC[C@]12C [27-Hydroxycholesterol]
0 (inactive)
COc1ccc(OC)c(C(O)CNC(=O)CN)c1 (stereo unspecified)
0 (inactive)
CCCCCCC(=O)OC1CC(C)(C)NC(C)(C)C1 [TMPH hydrochloride]
0 (inactive)

# returns recorded phenotypically active (system: HepG2-ACTB-RAB5A) for CN1CCC(=C2c3ccccc3CC(=O)c3sccc32)CC1 1 (active)

Tell me reported phenotypically active for OC[C@H]1O[C@@H](n2cnc3c(NCc4ccco4)ncnc32)[C@H](O)[C@@H]1O [Kinetin riboside] , tested with HepG2-ACTB-RAB5A. 1 (active)

Request: phenotypically active, test system HepG2-ACTB-RAB5A, entry CC[N@@+]1(C)[C@@H]2CC[C@H]1C[C@@H](OC(=O)[C@]1(c3ccccc3)CC[C@H](C(=O)O[C@H]3C[C@H]4CC[C@@H](C3)[N@+]4(C)CC)c3ccccc31)C2 [beta- Belladonnine dichloroethylate] 0 (inactive)

Request: phenotypically active, test system HepG2-ACTB-RAB5A, entry CCCS(=O)(=O)Nc1ccc(F)c(C(=O)c2c[nH]c3ncc(Cl)cc23)c1F 1 (active)

Query phenotypically active on HepG2-ACTB-RAB5A for CCN1CCN(c2cc(-c3ccc(F)cc3)c3c(n2)CCCCCC3)CC1 1 (active)

Provide the documented phenotypically active with HepG2-ACTB-RAB5A as the system for C=C[C@H]1CN2CC[C@H]1C[C@H]2[C@H](O)c1ccnc2ccc(OC)cc12 [Quinine dihydrochloride] 0 (inactive)

What reported phenotypically active corresponds to Nc1c2c(nc3ccccc13)CCCC2 on HepG2-ACTB-RAB5A? 0 (inactive)

Form field: phenotypically active recorded for CCCCOc1cc(C(=O)OCCN(CC)CC)ccc1N with HepG2-ACTB-RAB5A (enter value) 0 (inactive)

Give phenotypically active (HepG2-ACTB-RAB5A) of the following compound: CCCCC1=NC2(CCCC2)C(=O)N1Cc1ccc(-c2ccccc2-c2nnn[nH]2)cc1 0 (inactive)

Notebook entry, HepG2-ACTB-RAB5A assay: phenotypically active of CN1[C@@H]2CC[C@H]1C[C@@H](OC(c1ccccc1)c1ccccc1)C2 = ? 1 (active)

---

Tested on: WPMY1-GM130-SQSTM1
Assay: lowest phenotypically active concentration; higher = less potent
Details: treatment time: 24 h
Counter-ions that a name gives are not always drawn.
property.label: lowest phenotypically active concentration (µM)
Dear colleague, please return just the value in µM, with no unit written.

Here are 7 compounds together with their reported answers.
Cc1noc(C)c1-c1ccc2c(c1)nc(CCc1ccc(OCCCN(C)C)cc1)n2CCN1CCOCC1
9
Cc1cn(CCN2CCN(c3ccccc3-c3cc(C#N)cc(C(=O)NCCCN4CCCC4)c3)CC2)c2ccccc12
3
CC(C)(N)c1cc(C(=O)N[C@@H]2CCc3ccc(OC4=C5CCC(=O)N=C5NC=C4)cc3C2)cc(C(F)(F)F)c1 [ML 786 dihydrochloride]
1
CC(=O)N1CCN(c2ccc(OC[C@H]3CO[C@](Cn4ccnc4)(c4ccc(Cl)cc4Cl)O3)cc2)CC1
9
COCC(=O)O[C@]1(CCN(C)CCCc2nc3ccccc3[nH]2)CCc2cc(F)ccc2[C@@H]1C(C)C
9
CN(C)c1ccc(/C=C2\C(=O)Nc3ccccc32)cc1
3
CC(C)[C@H](N)C(=O)OCC(CO)OCn1cnc2c(=O)[nH]c(N)nc21 (stereo partly drawn)
1

In the following, a different compound is considered.
For the compound CN(C)CCCN1c2ccccc2Sc2ccc(C(F)(F)F)cc21 , what lowest phenotypically active concentration is on record? 9
